The measurements presented in this section are drawn from paper PMC4258814.

- assay.target: (MOUSE)NAT2*1 (Mus musculus, UniProt P50295)
- Construct: made in house
- Sequence (P50295 1-290): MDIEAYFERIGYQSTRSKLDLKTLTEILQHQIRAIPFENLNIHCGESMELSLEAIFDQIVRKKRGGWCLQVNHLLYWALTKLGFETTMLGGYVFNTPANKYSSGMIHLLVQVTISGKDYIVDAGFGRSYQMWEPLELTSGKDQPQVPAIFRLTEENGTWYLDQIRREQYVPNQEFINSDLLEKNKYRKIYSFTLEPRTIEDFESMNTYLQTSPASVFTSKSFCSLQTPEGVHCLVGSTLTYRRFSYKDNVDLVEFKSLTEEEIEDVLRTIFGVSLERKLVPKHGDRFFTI
- assay.details: Substrate specific N-acetylation profile
- Assay type: biochemical
- conditions: substrate 500 μM, relative to substrate with highest specific activity (100%), mean of 3 ± SD
% specific activity values by entry:
Your answer should be a plain number; it is taken to be in %.

Please review the following examples before continuing.
| compound | % specific activity values, % |
| --- | --- |
| Nc1ccc(Br)cc1 | 52 |
| COc1ccc(N)cc1 | 88 |
| Nc1ccc(C(=O)N[C@@H](CCC(=O)O)C(=O)O)cc1 [4ABglu, 4-aminobenzoyl glutamate] | 87 |

% specific activity values on (MOUSE)NAT2*1 (Mus musculus, UniProt P50295) for Nc1ccc(I)cc1 is 72

% specific activity values on (MOUSE)NAT2*1 (Mus musculus, UniProt P50295) for Nc1ccc(C(=O)O)c(O)c1 [4AS, 4-aminosalicylate] is 55

% specific activity values on (MOUSE)NAT2*1 (Mus musculus, UniProt P50295) for NNC(=O)c1ccncc1 is 2

% specific activity values on (MOUSE)NAT2*1 (Mus musculus, UniProt P50295) for CCCCCCOc1ccc(N)cc1 is 23

% specific activity values on (MOUSE)NAT2*1 (Mus musculus, UniProt P50295) for Nc1ccc(Cl)cc1 is 46

% specific activity values on (MOUSE)NAT2*1 (Mus musculus, UniProt P50295) for Nc1ccc(Oc2ccccc2)cc1 is 20

---

- assay.target: (MOUSE)NAT2_R127G (Mus musculus, UniProt P50295, R127G)
- Construct: made in house
- assay.details: Substrate specific N-acetylation profile
- Format: biochemical
- conditions: (MOUSE)NAT2 R127G; substrate 500 μM; relative to substrate with highest specific activity (100%); mean of 3 ± SD
Lab note - cut at 20% for % specific activity values: condition met if strictly below, condition not met if not.

These recorded examples may help you get a feel for the data.
| compound | assay.target | assigned.category |
| --- | --- | --- |
| Nc1ccc(I)cc1 [4IA, 4-iodoaniline] | (MOUSE)NAT2_R127G (Mus musculus, UniProt P50295, R127G) | condition not met |
| Nc1ccc(C(=O)N[C@@H](CCC(=O)O)C(=O)O)cc1 [4ABglu, 4-aminobenzoyl glutamate] | (MOUSE)NAT2_R127G (Mus musculus, UniProt P50295, R127G) | condition met |
| Cc1cc(C)nc(NS(=O)(=O)c2ccc(N)cc2)n1 [SMZ, sulfamethazine] | (MOUSE)NAT2_R127G (Mus musculus, UniProt P50295, R127G) | condition met |
| COc1ccc(N)cc1 [ANS, 4-methoxyaniline] | (MOUSE)NAT2_R127G (Mus musculus, UniProt P50295, R127G) | condition not met |
| Nc1ccc(Br)cc1 [4BA, 4-bromoaniline] | (MOUSE)NAT2_R127G (Mus musculus, UniProt P50295, R127G) | condition not met |

# evaluate next
Criterion: % specific activity values strictly below 20%. Is it met by Nc1ccc(C(=O)O)cc1 [4ABA, 4-aminobenzoic acid] ?
condition met
